system: T1, recombinant His-tagged Der p1 (dust mite, UniProt P08176 99-320, limits assumed)
T1 construct: Recombinant His-tagged protein made by the applicant; also called Der p1-His; Der pl; not shown: His tag
T1 sequence (looked up): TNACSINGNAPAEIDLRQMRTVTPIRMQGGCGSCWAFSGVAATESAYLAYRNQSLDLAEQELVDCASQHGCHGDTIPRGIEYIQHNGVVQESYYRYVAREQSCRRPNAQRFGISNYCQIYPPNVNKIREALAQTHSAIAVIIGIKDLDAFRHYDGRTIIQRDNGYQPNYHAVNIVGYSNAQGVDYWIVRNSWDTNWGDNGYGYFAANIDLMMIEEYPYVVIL
experiment: ELISA, Der p1 on plate, biotinylated peptide at 10, duplicate 1
No end group written: not given here.
experimental endpoint: OD450 (OD450)
# output: bare number, implied unit OD450

VVAFGIS (also: biotinylated, site not given here, 7-amino acid peptide from a phage display library) [SDAB22110-2-G1]: 0.323
HSGPECG (also: biotinylated, site not given here, 7-amino acid peptide from a phage display library) [SDAB22110-2-D3]: 3.55

Below: the item to evaluate.
Indicate its recorded OD450; the binder in question is AVVSFYP (also: biotinylated, site not given here, 7-amino acid peptide from a phage display library) [SDAB22110-2-F1]
0.479
